// values below are reported Maximal Response (pg/mL) IFN
Test system: interferon (α) (IFN-α)
Procedure Text: Cytokine induction in human cells: IFN-α secreted by PBMC (ELISA)
Format: cell-based
Assay Setup: tested 30-0.014 μM, background-subtracted, reference-adjusted, median if more than one experiment
Procedure: An in vitro human blood cell system is used to assess cytokine induction. […] Following incubation the plates are centrifuged for 10 minutes at 1000 rpm (approximately 200×g) at 4° C. […] The samples are analyzed for IFN-α by ELISA and for TNF-α by IGEN/BioVeris Assay. IFN-α concentration is determined with a human multi-subtype colorimetric sandwich ELISA (Catalog Number 41105) from PBL Biomedical Laboratories, Piscataway, N.J. Results are expressed in pg/mL. […]
Express your answer in pg/mL, writing the number without its unit.

Solved entries:
CC(C)Cn1c(CCO)nc2c(N)nc3cc(-c4cncc(CO)c4)ccc3c21 [Example 4] ... 1891
CC(C)(O)Cn1c(CCO)nc2c(N)nc3cc(-c4ccccc4)ccc3c21 [Example 2] ... 1274
CC(C)(O)Cn1c(CO)nc2c(N)nc3cc(-c4cccc(O)c4)ccc3c21 [Example 13] ... 12641
Cc1cccc(-c2ccc3c(c2)nc(N)c2nc(CO)n(CC(C)(C)O)c23)c1 [Example 9] ... 87
Cc1ccc(-c2ccc3c(c2)nc(N)c2nc(CO)n(CC(C)(C)O)c23)cc1 [Example 10] ... 1681

// returns reported Maximal Response (pg/mL) IFN for input CC(C)(O)Cn1c(CO)nc2c(N)nc3cc(-c4cccnc4)ccc3c21 [Example 8] 2886

# iterate: CC(C)Cn1c(CCO)nc2c(N)nc3cc(-c4cccnc4)ccc3c21 [Example 3] 1180
